measured target: T1, GST-fused BRI1 kinase domain (Arabidopsis, UniProt O22476 814-1196)
T1 construct: BRASSINOSTEROID … 1 (BRI1), Arabidopsis, kinase domain, residues 814-1196; also called GST-BRI1-KD; BRI1-KD; source: E. coli (pGEX-4T-1); not shown: GST, N-terminal, kept
T1 sequence (looked up): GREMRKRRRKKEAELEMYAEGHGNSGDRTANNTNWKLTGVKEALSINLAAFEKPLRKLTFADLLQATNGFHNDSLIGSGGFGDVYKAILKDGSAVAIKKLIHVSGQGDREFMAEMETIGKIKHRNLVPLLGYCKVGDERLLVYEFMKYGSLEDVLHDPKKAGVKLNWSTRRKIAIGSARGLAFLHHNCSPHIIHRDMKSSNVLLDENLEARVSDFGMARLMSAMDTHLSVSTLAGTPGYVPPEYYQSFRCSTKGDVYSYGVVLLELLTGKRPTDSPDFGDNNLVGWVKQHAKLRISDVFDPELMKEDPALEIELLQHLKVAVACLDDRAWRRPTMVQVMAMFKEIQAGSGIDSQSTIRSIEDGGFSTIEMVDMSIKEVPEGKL
method notes: pull-down; about 15 μg GST fusion with about 30 μg MBP fusion in 900 μL TGH buffer (10% glycerol, 1% Triton X-100, 1.5 mM MgCl2, 150 mM NaCl, 1 mM EGTA, 50 mM HEPES, pH 7.5); 30 μL GST beads, about 1 h; immunoblot with anti-MBP and anti-GST
test parameters: both partners purified
measured quantity: binding result

binder: MBP-AGB1 (natural protein, Arabidopsis, UniProt P49177 1-377, looked up, AGB1, Arabidopsis G protein beta subunit; Cloned into the EcoR I and Pst I sites of pMAL-c2; also called G protein beta subunit; source: E. coli (pMAL-c2); not shown: MBP, N-terminal, kept) MSVSELKERHAVATETVNNLRDQLRQRRLQLLDTDVARYSAAQGRTRVSFGATDLVCCRTLQGHTGKVYSLDWTPERNRIVSASQDGRLIVWNALTSQKTHAIKLPCAWVMTCAFSPNGQSVACGGLDSVCSIFSLSSTADKDGTVPVSRMLTGHRGYVSCCQYVPNEDAHLITSSGDQTCILWDVTTGLKTSVFGGEFQSGHTADVLSVSISGSNPNWFISGSCDSTARLWDTRAASRAVRTFHGHEGDVNTVKFFPDGYRFGTGSDDGTCRLYDIRTGHQLQVYQPHGDGENGPVTSIAFSVSGRLLFAGYASNNTCYVWDTLLGEVVLDLGLQQDSHRNRISCLGLSADGSALCTGSWDSNLKIWAFGGHRRVI
measured quantity: binding result
observed: binds

binder: MBP-AGG1 (natural protein, Arabidopsis, UniProt Q9FDX9 1-98, looked up, AGG1, Arabidopsis G protein gamma subunit 1; also called G protein gamma subunit; source: E. coli (pMAL-c2); not shown: MBP, N-terminal, kept) MREETVVYEQEESVSHGGGKHRILAELARVEQEVAFLEKELKEVENTDIVSTVCEELLSVIEKGPDPLLPLTNGPLNLGWDRWFEGPNGGEGCRCLIL
measured quantity: binding result
observed: binds

binder: MBP-AGG2 (natural protein, Arabidopsis, UniProt Q93V47 1-100, looked up, AGG2, Arabidopsis G protein gamma subunit 2; also called G protein gamma subunit; source: E. coli (pMAL-c2); not shown: MBP, N-terminal, kept) MEAGSSNSSGQLSGRVVDTRGKHRIQAELKRLEQEARFLEEELEQLEKMDNASASCKEFLDSVDSKPDPLLPETTGPVNATWDQWFEGPKEAKRCGCSIL
measured quantity: binding result
observed: binds
